- Tested on: JAK1/3 phosphorylation of its substrate, STAT5, at Y694
- experiment_summary: JAK1/3 target modulation assay (IL-2 stimulated STAT5 Y694 phosphorylation in PBMC)
- Format: cell-based
- condition_summary: Homo sapiens, PBMC, Primary human peripheral blood mononuclear cells, IL-2 25 ng/mL; read-out: IL2-STAT5 Inh. IC50
Quick reference for IC50 among some compounds

compound | value_kind | value_measured
C[C@H]1CC[C@@H](Nc2ncnc3[nH]cc([C@@H]4CC4(F)F)c23)CN1C(=O)/C=C/CN(C)C (single isomer, unassigned) | IC50 | > 1000 nM
C=CC(=O)N1C[C@H](Nc2ncnc3[nH]cc([C@H]4CC4(F)F)c23)CC[C@@H]1CC (single isomer, unassigned) | IC50 | > 1000 nM
C=CC(=O)N1C[C@H](Nc2ncnc3[nH]cc(CC4CCC(CC)C4)c23)CC[C@@H]1C (mixture of isomers) | IC50 | 100 to 1000 nM
C=CC(=O)N1CCC[C@@H](Nc2ccnc3[nH]cc(C(=O)C4CCCC4)c23)C1 | IC50 | 100 to 1000 nM
C=CC(=O)N1CC(Nc2ncnc3[nH]cc(C(=O)C4CC4)c23)C1 | IC50 | > 1000 nM

Attention now turns to another entry.
Query string: What IC50 value was documented for this compound, C=CC(=O)N1C[C@H](Nc2ncnc3[nH]cc([C@H]4CC4(F)F)c23)CC[C@@H]1C (single isomer, unassigned) ?
Result string: 100 to 1000 nM
